In this section we review reported MIC values for a set of compounds.
Tested on: Stenotrophomonas maltophilia
Assay: Antibacterial activity against levofloxacin-susceptible Stenotrophomonas maltophilia by CLSI M7-A7 method
Format: functional
A number alone suffices; assume µg/mL.

Please review the entries below; each comes with its answer.
QUERY: What does the record list as MIC for C[C@H]1COc2c(N3CCN(C)CC3)c(F)cc3c(=O)c(C(=O)O)cn1c23.C[C@H]1COc2c(N3CCN(C)CC3)c(F)cc3c(=O)c(C(=O)O)cn1c23.O ?
RESULT: 4

QUERY: Moving on to NC[C@H]1O[C@H](O[C@H]2[C@H](O)[C@@H](O[C@H]3O[C@H](CO)[C@@H](O)[C@H](N)[C@H]3O)[C@H](N)C[C@@H]2N)[C@H](N)C[C@@H]1O
RESULT: 2

QUERY: Moving on to C[C@@H](O)[C@H]1C(=O)N2C(C(=O)O)=C(SCCNC=N)C[C@H]12 [IMIPENEM ANHYDROUS]
RESULT: 0.25

QUERY: Moving on to N[C@@H]1CCCCN(c2c(F)cc3c(=O)c(C(=O)O)cn(C4CC4)c3c2Cl)C1
RESULT: 1

Now, please, on to the next compound.
QUERY: What does the record list as MIC for CC(C)(O/N=C(\C(=O)N[C@@H]1C(=O)N2C(C(=O)[O-])=C(C[n+]3ccccc3)CS[C@H]12)c1csc(N)n1)C(=O)O ?
RESULT: 0.5

###

System: Streptococcus sanguinis
Assay: Antibacterial activity against Streptococcus sanguinis by CLSI M100-S18 method
Format: functional
In this section we review reported MIC50 values for a set of compounds.
A number alone suffices; assume µg/mL.

Please review the entries below; each comes with its answer.
QUERY: What does the record list as MIC50 for CC[C@H]1OC(=O)[C@H](C)[C@@H](O[C@H]2C[C@@](C)(OC)[C@@H](O)[C@H](C)O2)[C@H](C)[C@@H](O[C@@H]2O[C@H](C)C[C@H](N(C)C)[C@H]2O)[C@](C)(O)C[C@@H](C)CN(C)[C@H](C)[C@@H](O)[C@]1(C)O [AZITHROMYCIN] ?
RESULT: 1

QUERY: Moving on to CC1(C)S[C@@H]2[C@H](NC(=O)Cc3ccccc3)C(=O)N2[C@H]1C(=O)O [PENICILLIN G]
RESULT: 16

QUERY: Moving on to COc1c(N2CCNC(C)C2)c(F)cc2c(=O)c(C(=O)O)cn(C3CC3)c12 (stereo unspecified) [GATIFLOXACIN]
RESULT: 0.06

QUERY: Moving on to NC[C@H]1O[C@H](O[C@H]2[C@H](O)[C@@H](O[C@H]3O[C@H](CO)[C@@H](O)[C@H](N)[C@H]3O)[C@H](N)C[C@@H]2N)[C@H](N)C[C@@H]1O [TOBRAMYCIN]
RESULT: 0.06

QUERY: Moving on to N[C@@H]1CCCCN(c2c(F)cc3c(=O)c(C(=O)O)cn(C4CC4)c3c2Cl)C1 [BESIFLOXACIN]
RESULT: 0.06

Now, please, on to the next compound.
QUERY: What does the record list as MIC50 for C[C@H]1COc2c(N3CCN(C)CC3)c(F)cc3c(=O)c(C(=O)O)cn1c23.C[C@H]1COc2c(N3CCN(C)CC3)c(F)cc3c(=O)c(C(=O)O)cn1c23.O [LEVOFLOXACIN] ?
RESULT: 1
